assay: Concentration required for 50% inhibition of [125I]- AII binding to rabbit uterus membrane preparation (AT2); type: tissue-based, Oryctolagus cuniculus
So basically: is IC50 under 4 nM? Then yes. Not under? Then no.

{"columns": ["COMPOUND", "CLASSIFICATION"],
 "data": [
  ["CCCc1nc(SC)c(C(=O)C[S+]([O-])c2ccccc2)n1Cc1ccc(-c2ccccc2S(=O)(=O)NC(=O)NCc2ccccc2)cc1 (centres undefined)", "yes"],
  ["CCCc1nc(SC)c(C(C)=O)n1Cc1ccc(-c2ccccc2S(=O)(=O)NC(=O)NCc2ccccc2)cc1", "no"],
  ["CCCCc1nc(SC)c(C(=O)CS(C)(=O)=O)n1Cc1ccc(-c2ccccc2S(=O)(=O)NC(=O)NCc2ccccc2)cc1", "no"],
  ["CCCCc1nc(SC)c(C(=O)C(CCC)S(=O)(=O)c2ccccc2)n1Cc1ccc(-c2ccccc2S(=O)(=O)NC(=O)NCc2ccccc2)cc1 (centres undefined)", "no"],
  ["CCCCc1nc(SC)c(C(=O)O)n1Cc1ccc(-c2ccccc2S(=O)(=O)NC(=O)NCc2ccccc2)cc1", "no"]
]}

Problem: For the compound CCc1nc(SC)c(C(=O)C[S+]([O-])c2ccccc2)n1Cc1ccc(-c2ccccc2S(=O)(=O)NC(=O)NCc2ccccc2)cc1 (centres undefined) , is IC50 under 4 nM?
yes

Problem: For the compound CCCc1nc(SC)c(C(=O)C[S+]([O-])c2ccc(C)cc2)n1Cc1ccc(-c2ccccc2S(=O)(=O)NC(=O)NCc2ccccc2)cc1 (single isomer, unassigned; 7h) , is IC50 under 4 nM?
no

Problem: For the compound CCCCc1nc(SC)c(C(=O)C[S+](C)[O-])n1Cc1ccc(-c2ccccc2S(=O)(=O)NC(=O)NCc2ccccc2)cc1 (centres undefined) , is IC50 under 4 nM?
no

Problem: For the compound CCCCc1nc(SC)c(C(C)(O)C(=O)O)n1Cc1ccc(-c2ccccc2S(=O)(=O)NC(=O)NCCC)cc1 (centres undefined) , is IC50 under 4 nM?
no

Problem: For the compound CCCc1nc(SC)c(C(=O)C[S+]([O-])c2ccccc2)n1Cc1ccc(-c2ccccc2S(=O)(=O)NC(=O)NCc2cccs2)cc1 (centres undefined) , is IC50 under 4 nM?
yes
